# procedure details: physchem
# particulars: 37 °C, pH 7, aqueous buffer, thermodynamic from solid
experimental endpoint: solubility at 24 h (µg/mL)
Expressed in µg/mL, but write only the number.

Requested read-out: solubility at 24 h. Entry: Cc1nc(-c2c[nH]c3c(C#N)cccc23)cnc1OCC(C)(C)O [Form P]
2.4

----------
# procedure details: physchem
# particulars: 37 °C, pH 1.6, fassgf or other biorelevant, thermodynamic from solid
experimental endpoint: solubility at 24 h (µg/mL)
Expressed in µg/mL, but write only the number.

Requested read-out: solubility at 24 h. Entry: Cc1nc(-c2c[nH]c3c(C#N)cccc23)cnc1OCC(C)(C)O [Form P]
5.1

----------
# procedure details: physchem
# particulars: 37 °C, pH 1.2, simulated gastric fluid, thermodynamic from solid
experimental endpoint: solubility at 24 h (µg/mL)
Expressed in µg/mL, but write only the number.

Requested read-out: solubility at 24 h. Entry: Cc1nc(-c2c[nH]c3c(C#N)cccc23)cnc1OCC(C)(C)O [Form P]
7.2

----------
# procedure details: physchem
# particulars: 37 °C, pH 5, fessif, thermodynamic from solid
experimental endpoint: solubility at 24 h (µg/mL)
Expressed in µg/mL, but write only the number.

Requested read-out: solubility at 24 h. Entry: Cc1nc(-c2c[nH]c3c(C#N)cccc23)cnc1OCC(C)(C)O [Form P]
111

----------
# procedure details: physchem
# particulars: 25 °C, water, thermodynamic from solid, Approximate solubility
experimental endpoint: solubility

Requested read-out: solubility. Entry: Cc1nc(-c2c[nH]c3c(C#N)cccc23)cnc1OCC(C)(C)O [Form P]
< 5000 µg/mL

----------
# procedure details: physchem
# particulars: 37 °C, pH 6.5, fassif, thermodynamic from solid
experimental endpoint: solubility at 24 h (µg/mL)
Expressed in µg/mL, but write only the number.

Requested read-out: solubility at 24 h. Entry: Cc1nc(-c2c[nH]c3c(C#N)cccc23)cnc1OCC(C)(C)O [Form P]
20.9

----------
# procedure details: physchem
# particulars: 37 °C, water, thermodynamic from solid
experimental endpoint: solubility at 24 h (µg/mL)
Expressed in µg/mL, but write only the number.

Requested read-out: solubility at 24 h. Entry: Cc1nc(-c2c[nH]c3c(C#N)cccc23)cnc1OCC(C)(C)O [Form P]
2.7

----------
# procedure details: physchem
# particulars: 37 °C, pH 3, aqueous buffer, thermodynamic from solid
experimental endpoint: solubility at 24 h (µg/mL)
Expressed in µg/mL, but write only the number.

Requested read-out: solubility at 24 h. Entry: Cc1nc(-c2c[nH]c3c(C#N)cccc23)cnc1OCC(C)(C)O [Form P]
2.9

----------
# procedure details: physchem
# particulars: 50 °C, water, thermodynamic from solid, Approximate solubility
experimental endpoint: solubility

Requested read-out: solubility. Entry: Cc1nc(-c2c[nH]c3c(C#N)cccc23)cnc1OCC(C)(C)O [Form P]
< 5000 µg/mL

Recorded values, source patent US20250263396A1.
